TARGET_OR_TEST_SYSTEM: UniProt:P49840
Sequence (P49840 whole entry): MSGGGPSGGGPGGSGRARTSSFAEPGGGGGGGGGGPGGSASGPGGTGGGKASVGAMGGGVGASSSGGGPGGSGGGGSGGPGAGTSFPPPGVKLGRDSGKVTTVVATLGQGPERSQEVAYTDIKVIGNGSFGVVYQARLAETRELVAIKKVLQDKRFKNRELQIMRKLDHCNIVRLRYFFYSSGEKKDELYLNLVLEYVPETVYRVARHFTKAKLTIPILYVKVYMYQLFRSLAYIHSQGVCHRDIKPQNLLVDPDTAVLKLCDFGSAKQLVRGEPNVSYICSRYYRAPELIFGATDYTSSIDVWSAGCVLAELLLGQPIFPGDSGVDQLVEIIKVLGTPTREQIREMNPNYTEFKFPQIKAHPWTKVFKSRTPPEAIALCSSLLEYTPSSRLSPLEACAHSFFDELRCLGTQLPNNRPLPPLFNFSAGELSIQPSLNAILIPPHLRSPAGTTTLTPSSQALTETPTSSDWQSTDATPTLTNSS
TEST_DETAILS: GSK 3α enzyme inhibition (FRET), Method 2
Assay type: biochemical
EXPERIMENTAL_PARAMETERS: Table 4a2, different laboratory
EXPERIMENTAL_ENDPOINT: IC50 (µM)

Solved entries:
COMPOUND: C#Cc1cc(Nc2nccc(Oc3ccc(NC(=O)Nc4cc(C(C)C)nn4-c4ccc(C)cc4)c4ccccc34)n2)cc(C(=O)NCCN2CCOCC2)c1 [Example 46]
UNITS_OF_MEASURE: µM
OBSERVED_RESULT: 11.3
--
COMPOUND: COc1cc(Nc2nccc(Oc3ccc(NC(=O)Nc4cc(C(F)(F)C(F)(F)F)nn4-c4ccc(C)cc4)c4ccccc34)n2)cc(C(=O)NCCN2CCOCC2)c1 [Example 9]
UNITS_OF_MEASURE: µM
OBSERVED_RESULT: 6.51

1. COCCNC(=O)c1cc(Nc2nccc(Oc3ccc(NC(=O)Nc4cc(C(C)C)nn4-c4ccc(OC)cc4)c4ccccc34)n2)cc(OC)c1 [Example 11]
2. C#Cc1cc(Nc2nccc(Oc3ccc(NC(=O)Nc4cc(C(C)C)nn4-c4ccc(C)cc4)c(Cl)c3Cl)n2)cc(C(=O)NCCN(C)C)c1 [Example 90]
QUERY: Pick one: 1 or 2 . Which has the bigger IC50 number? Label of pick, please.
RESULT: 1

// data source = patent US20140057915A1
